Provide the recorded Kd for the entries that follow.
target.under.test: Dpo4•DNA binary complex (Saccharolobus solfataricus)
Sequence (Q97W02 whole entry, one chain of several): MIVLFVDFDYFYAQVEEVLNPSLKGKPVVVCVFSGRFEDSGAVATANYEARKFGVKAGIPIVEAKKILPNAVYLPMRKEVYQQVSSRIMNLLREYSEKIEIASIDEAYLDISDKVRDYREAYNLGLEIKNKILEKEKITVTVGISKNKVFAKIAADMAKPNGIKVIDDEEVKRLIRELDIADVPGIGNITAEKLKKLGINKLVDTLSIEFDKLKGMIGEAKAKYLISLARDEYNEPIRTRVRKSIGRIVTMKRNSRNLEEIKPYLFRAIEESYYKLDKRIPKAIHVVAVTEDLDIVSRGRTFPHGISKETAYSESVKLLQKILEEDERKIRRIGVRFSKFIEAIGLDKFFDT
assay.overview: Substrate specificity assay
Format: biochemical, Sulfolobus solfataricus
measurement.setup: read-out: Kd,dNTP; DNA substrate 18/26-mer-dG^C8-N-ABA 30 nM, Dpo4 120 nM, 37 °C

Measured Kd of Nc1ncnc2c1ncn2[C@H]1C[C@H](O)[C@@H](COP(=O)(O)OP(=O)(O)OP(=O)(O)O)O1 : 2200 µM

Measured Kd of Nc1nc2c(ncn2[C@H]2C[C@H](O)[C@@H](COP(=O)(O)OP(=O)(O)OP(=O)(O)O)O2)c(=O)[nH]1 : 350 µM

Measured Kd of Nc1ccn([C@H]2C[C@H](O)[C@@H](COP(=O)(O)OP(=O)(O)OP(=O)(O)O)O2)c(=O)n1 : 32 µM
